Measured logP, listed per entry.
experimental-details: Measurement of lipophilicity (octanol / PBS pH 7.4)
Assay type: physicochemical
run-parameters: octanol/PBS pH 7.4
reported-metric: logP

[
  {
    "molecule": "[11CH3]n1cncc1CN1C[C@@H](c2cc(F)cc(F)c2)CC1=O [[^11C]UCB-A]",
    "reported-metric": "logP",
    "result-value": 1.1
  },
  {
    "molecule": "[11CH3]c1cnccc1CN1C[C@@H](c2cc(F)c(F)c(F)c2)CC1=O [[^11C]UCB-J]",
    "reported-metric": "logP",
    "result-value": 2.46
  },
  {
    "molecule": "Cc1cnccc1CN1C[C@@H](c2cccc([18F])c2)CC1=O [[^18F]SynVesT-2]",
    "reported-metric": "logP",
    "result-value": 2.17
  },
  {
    "molecule": "Cc1cnccc1CN1C[C@@H](c2cc(F)cc([18F])c2)CC1=O [[^18F]SynVesT-1]",
    "reported-metric": "logP",
    "result-value": 2.32
  },
  {
    "molecule": "Cc1nccn1CN1C[C@@H](c2cc(F)cc([18F])c2)CC1=O [[^18F]SDM-16]",
    "reported-metric": "logP",
    "result-value": 1.65
  },
  {
    "molecule": "O=C1C[C@H](c2cc(F)c(F)c(F)c2)CN1Cc1ccncc1[18F] [[^18F]UCB-H]",
    "reported-metric": "logP",
    "result-value": 2.31
  }
]

----------
experimental-details: Measurement of lipophilicity (octanol / PBS pH 7.4)
Assay type: physicochemical
run-parameters: octanol / 1x PBS, pH 7.4

[
  {
    "compound": "[11CH3]n1cncc1CN1C[C@@H](c2cc(F)cc(F)c2)CC1=O [[^11C]UCB-A]",
    "logD": 1.1
  }
]

----------
Test system: SV2A
experimental-details: Brain PET imaging with 1TC kinetic modeling
run-parameters: Insular cortex
Measured K1, listed per entry.
reported-metric: K1 (mL/cm^3 per min)

[
  {
    "compound": "[11CH3]c1cnccc1CN1C[C@@H](c2cc(F)c(F)c(F)c2)CC1=O [[^11C]UCB-J]",
    "reported-metric": "K1",
    "result-value": 0.75
  },
  {
    "compound": "[11CH3]n1cncc1CN1C[C@@H](c2cc(F)cc(F)c2)CC1=O [[^11C]UCB-A]",
    "reported-metric": "K1",
    "result-value": 0.15
  },
  {
    "compound": "Cc1cnccc1CN1C[C@@H](c2cc(F)cc([18F])c2)CC1=O [[^18F]SynVesT-1]",
    "reported-metric": "K1",
    "result-value": 0.93
  },
  {
    "compound": "Cc1nccn1CN1C[C@@H](c2cc(F)cc([18F])c2)CC1=O [[^18F]SDM-16]",
    "reported-metric": "K1",
    "result-value": 0.14
  }
]

----------
System: SV2A
experimental-details: Brain PET imaging with 1TC kinetic modeling
run-parameters: Thalamus
Measured K1, listed per entry.
reported-metric: K1 (mL/cm^3 per min)

[
  {
    "molecule": "Cc1cnccc1CN1C[C@@H](c2cc(F)cc([18F])c2)CC1=O [[^18F]SynVesT-1]",
    "reported-metric": "K1",
    "unit-descriptor": "mL/cm^3 per min",
    "result-value": 0.93
  },
  {
    "molecule": "Cc1nccn1CN1C[C@@H](c2cc(F)cc([18F])c2)CC1=O [[^18F]SDM-16]",
    "reported-metric": "K1",
    "unit-descriptor": "mL/cm^3 per min",
    "result-value": 0.14
  },
  {
    "molecule": "[11CH3]n1cncc1CN1C[C@@H](c2cc(F)cc(F)c2)CC1=O [[^11C]UCB-A]",
    "reported-metric": "K1",
    "unit-descriptor": "mL/cm^3 per min",
    "result-value": 0.14
  },
  {
    "molecule": "[11CH3]c1cnccc1CN1C[C@@H](c2cc(F)c(F)c(F)c2)CC1=O [[^11C]UCB-J]",
    "reported-metric": "K1",
    "unit-descriptor": "mL/cm^3 per min",
    "result-value": 0.72
  }
]

----------
Test system: SV2A
experimental-details: Brain PET imaging with 1TC kinetic modeling
run-parameters: Globus pallidus

[
  {
    "molecule": "[11CH3]n1cncc1CN1C[C@@H](c2cc(F)cc(F)c2)CC1=O [[^11C]UCB-A]",
    "K1, mL/cm^3 per min": 0.10
  },
  {
    "molecule": "[11CH3]c1cnccc1CN1C[C@@H](c2cc(F)c(F)c(F)c2)CC1=O [[^11C]UCB-J]",
    "K1, mL/cm^3 per min": 0.65
  },
  {
    "molecule": "Cc1cnccc1CN1C[C@@H](c2cc(F)cc([18F])c2)CC1=O [[^18F]SynVesT-1]",
    "K1, mL/cm^3 per min": 0.73
  },
  {
    "molecule": "Cc1nccn1CN1C[C@@H](c2cc(F)cc([18F])c2)CC1=O [[^18F]SDM-16]",
    "K1, mL/cm^3 per min": 0.11
  }
]

----------
Measured K1, listed per entry.
Test system: SV2A
experimental-details: Brain PET imaging with 1TC kinetic modeling
run-parameters: Putamen
reported-metric: K1 (mL/cm^3 per min)

[
  {
    "compound": "[11CH3]c1cnccc1CN1C[C@@H](c2cc(F)c(F)c(F)c2)CC1=O [[^11C]UCB-J]",
    "reported-metric": "K1",
    "result-value": 1.03
  },
  {
    "compound": "[11CH3]n1cncc1CN1C[C@@H](c2cc(F)cc(F)c2)CC1=O [[^11C]UCB-A]",
    "reported-metric": "K1",
    "result-value": 0.17
  },
  {
    "compound": "Cc1nccn1CN1C[C@@H](c2cc(F)cc([18F])c2)CC1=O [[^18F]SDM-16]",
    "reported-metric": "K1",
    "result-value": 0.16
  },
  {
    "compound": "Cc1cnccc1CN1C[C@@H](c2cc(F)cc([18F])c2)CC1=O [[^18F]SynVesT-1]",
    "reported-metric": "K1",
    "result-value": 1.25
  }
]

----------
System: SV2A
experimental-details: Brain PET imaging with 1TC kinetic modeling
run-parameters: Hippocampus

[
  {
    "compound": "Cc1nccn1CN1C[C@@H](c2cc(F)cc([18F])c2)CC1=O [[^18F]SDM-16]",
    "test-target": "SV2A",
    "K1 / mL/cm^3 per min": 0.12
  },
  {
    "compound": "[11CH3]n1cncc1CN1C[C@@H](c2cc(F)cc(F)c2)CC1=O [[^11C]UCB-A]",
    "test-target": "SV2A",
    "K1 / mL/cm^3 per min": 0.12
  },
  {
    "compound": "Cc1cnccc1CN1C[C@@H](c2cc(F)cc([18F])c2)CC1=O [[^18F]SynVesT-1]",
    "test-target": "SV2A",
    "K1 / mL/cm^3 per min": 0.68
  },
  {
    "compound": "[11CH3]c1cnccc1CN1C[C@@H](c2cc(F)c(F)c(F)c2)CC1=O [[^11C]UCB-J]",
    "test-target": "SV2A",
    "K1 / mL/cm^3 per min": 0.61
  }
]

----------
experimental-details: Brain PET imaging with 1TC kinetic modeling
run-parameters: rhesus monkey, brain tissue, intravenous
Measured fraction unbound, listed per entry.

[
  {
    "compound": "[11CH3]c1cnccc1CN1C[C@@H](c2cc(F)c(F)c(F)c2)CC1=O [[^11C]UCB-J]",
    "fraction unbound": 0.073
  },
  {
    "compound": "Cc1nccn1CN1C[C@@H](c2cc(F)cc([18F])c2)CC1=O [[^18F]SDM-16]",
    "fraction unbound": 0.27
  }
]

----------
Tested on: SV2A
experimental-details: Brain PET imaging with 1TC kinetic modeling
run-parameters: Caudate
reported-metric: K1 (mL/cm^3 per min)

[
  {
    "compound": "Cc1cnccc1CN1C[C@@H](c2cc(F)cc([18F])c2)CC1=O [[^18F]SynVesT-1]",
    "reported-metric": "K1",
    "result-value": 0.95
  },
  {
    "compound": "[11CH3]c1cnccc1CN1C[C@@H](c2cc(F)c(F)c(F)c2)CC1=O [[^11C]UCB-J]",
    "reported-metric": "K1",
    "result-value": 0.75
  },
  {
    "compound": "Cc1nccn1CN1C[C@@H](c2cc(F)cc([18F])c2)CC1=O [[^18F]SDM-16]",
    "reported-metric": "K1",
    "result-value": 0.13
  },
  {
    "compound": "[11CH3]n1cncc1CN1C[C@@H](c2cc(F)cc(F)c2)CC1=O [[^11C]UCB-A]",
    "reported-metric": "K1",
    "result-value": 0.13
  }
]

Entry source: paper PMC8940841
